Test: yeast display, Sf9 membrane polyspecificity reagent, FACS + sequencing; frameworks hold sequencing errors
Measurement Label: polyreactivity (PSR sort gate)

Sequence: QVQLVESGGGLVQAGGSLRLSCAASGRIIAYYAMGWYRQAPGKERELVAAISRRGGSTYYADSVKGRFTISRDNAKNTVYLQMNSLKPEDTAVYYCDTLTLESFSALYYWGQGTQVTVSS
Result Value: low polyreactivity
--
Sequence: QDQLVESGGGLVQAGGSLRLSCAASGRTFDDYAMGWSRPAPGKERELVAAINSGGNTYYADSVKGRFTISRDNAKNTVYLQMNSLKREDTADYYCAAYYRDKLSGYNYWRQGTQVTVSS
Result Value: high polyreactivity
--
Sequence: QVQLVESGGGFVQAGGSLRLSCAASGRIFPWNTMGWYRQATGNERELVAGITSGGSTNYADSVKGRFTISRDNAKNTVYLQMNSLKPEDTAVYNCAARGYYWYISGVYEYEYWGQGTQVTVSS
Result Value: low polyreactivity
--
Sequence: QVQLVESGGGLVQAGGSLRLSCAASGSTSQYNAMGWYRQAPGKERELVAAISWSGTSTYYADSVKGRFTISRDNAKNTVYLQMNSLKPEDTAVYYCAADYIFDYDYWGQGTQVTVSS
Result Value: low polyreactivity

query: Please give the measured polyreactivity (PSR sort gate) for this sequence: QVQLVESGGGLVQAGGSLRLSCAASGIIVPNAMGWYRQAPGKERELVAVITSGGSTYYADSVKGRFTISRDNAKNTVYLQMNSLKPEDTAVYYCNKDYAAIDRYDSWGQGTQVTVSS
result: low polyreactivity

query: Try this sequence next: QVQLVESGGGLVQAGGRLRLSCAASGRILRWYTMGWYRQAPGKERELVAAITSRGGSTYYADSVKGRFTISRDNAKNTVYLQMNSLKPEDTAVYYCAAVSWYTRLTYYYWGQGTQVTVSS
result: high polyreactivity

query: Try this sequence next: QVQLVESGGGLDQAGGSLRLSCAASGITFYGYAMGWYRQAPGKEREFVAVITSTARTNYADSVKGRFTISRDNAKNTVYLQMNSLKPEDTAVYYCAARRVVRRDRYGSMDYWGQGTQVTVSS
result: high polyreactivity

query: Try this sequence next: QVQLVESGGGLVQAGGSLRLSCAASGSTFGDYAMGWYRQAPGKERELVAAITIGGITTYADSVKGRFTISRDNAKNTVYLQMNSLKPEDTAVYYCNADDYQYKTWYHLDYWGQGTQVTVSS
result: low polyreactivity

query: Try this sequence next: QVQLVESGGGLVQAGGSLSLSCAASGSNFYYNVMGWYRQAPGKERELVAAISQSGVRTYYADSVKGRFTISRDNAKNTVYLQMNSLKPEDTAVYYCAAKARRLYASSYDYWGQGTQVTVSS
result: high polyreactivity

query: Try this sequence next: QVQHLESGGGLVQAGRSLRLSCAASGSTFITNTMGWYIKATGKERELLAAISKSGGSTYYADSVKGRFTISRDNAKNTVYLQMNSLKPEDTAVYYCAADIYVRDRGVKYDYWGQGTQVTVSS
result: low polyreactivity

query: Try this sequence next: QVQLVESGGGLVQAGGSLRLSCPASGRTFKRYAMGWYRQEPGKEMELVASISWRGGSTYYADSVKGRFTISRDNAKNTVYLQMNSLKPEDTAVYYCAAEGPGNVYKLDYWGQGTQVTVSS
result: low polyreactivity

# credit: the nanobody polyreactivity screen of Harvey et al. (2022)
